Source of measurements: ChEMBL document CHEMBL1201861

Test system: HCC1143;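 further: growth inhibition of human HCC1143 cells, read out with a cell viability assay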
Experiment: cells
Type: functional, cell-based
Conditions: Homo sapiens
Description: SANGER: Inhibition of human HCC1143 cell growth in a cell viability assay.
reported.metric: pIC50
Keep it numeric: pIC50 is minus log10 of the concentration in mol/L.

// returns reported pIC50 for input C/C=C(/C)C(=O)O[C@H]1C(C)=C2[C@H]([C@@H]1OC(=O)CCCCCCC)[C@@](C)(OC(C)=O)C[C@H](OC(=O)CCC)[C@@]1(O)[C@H]2OC(=O)[C@@]1(C)O
8.68

* * *

Test system: NCI-H1436
Assay: cells
Format: functional, cell-based
Details: Homo sapiens
Description: SANGER: Inhibition of human NCI-H1436 cell growth in a cell viability assay.
reported.metric: IC50 (µM)
Please respond with the number in µM and leave the unit unwritten.

Use the examples below as a reference point.
Report IC50 for CC(C)=CC[C@@H](O)C1=CC(=O)c2c(O)ccc(O)c2C1=O tested on NCI-H1436.
0.604

Report IC50 for CCNC(=O)c1noc(-c2cc(C(C)C)c(O)cc2O)c1-c1ccc(CN2CCOCC2)cc1 tested on NCI-H1436.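 Further: growth suppression of human NCI-H1436 cells, determined with a cell viability readout.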
0.218

Turning now to a further record.
Notebook entry, NCI-H1436 assay: IC50 of CO[C@@]12[C@H](COC(N)=O)C3=C(C(=O)C(C)=C(N)C3=O)N1C[C@@H]1N[C@@H]12 = ?
1.93

* * *

Entries and their IC50 values follow.
System: EW-24;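 further: human EW-24 cancer cell line, growth inhibition read out via a cell viability assay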
Assay: cells
Type: functional, cell-based
Settings: Homo sapiens
Description: SANGER: Inhibition of human EW-24 cell growth in a cell viability assay.

A selection of reference data follows.
Given the entry CCNc1cc(N[C@H]2CC[C@@H](O)CC2)nc(Nc2ccc3c(ccn3Cc3ccccc3)c2)n1 , report its measured IC50.
> 5.12 µM

For CC[C@]1(O)C[C@@H]2CN(CCc3c([nH]c4ccccc34)[C@@](C(=O)OC)(c3cc4c(cc3OC)N(C)[C@H]3[C@@](O)(C(=O)OC)[C@H](OC(C)=O)[C@]5(CC)C=CCN6CC[C@]43[C@@H]65)C2)C1 [VINBLASTINE] , what is its reported IC50?
0.018 µM

Attention now shifts to the item below.
Query (molecule): NC(=O)c1ncn([C@@H]2O[C@H](COP(=O)(O)O)[C@@H](O)[C@H]2O)c1N ; field requested: IC50
> 2000 µM

* * *

Documented IC50 across a set of molecules
Tested on: U-87 MG;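 further: growth inhibition of the cells measured with a viability assay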
Assay: cells
Type: functional, cell-based, U-87MG ATCC
Conditions: Homo sapiens
Description: SANGER: Inhibition of human U-87-MG cell growth in a cell viability assay.

# IC50 lookup, item Cn1c(=O)n(-c2ccc(C(C)(C)C#N)cc2)c2c3cc(-c4cnc5ccccc5c4)ccc3ncc21
0.301 µM

Query (molecule): CCCS(=O)(=O)Nc1ccc(F)c(C(=O)c2c[nH]c3ncc(Cl)cc23)c1F ; field requested: IC50
> 10 µM

// returns reported IC50 for input C/C(O)=C(\C#N)C(=O)Nc1cc(Br)ccc1Br
> 16 µM

# IC50 lookup, item CC(O)(CS(=O)(=O)c1ccc(F)cc1)C(=O)Nc1ccc(C#N)c(C(F)(F)F)c1 (centres undefined) [BICALUTAMIDE]
> 1.02 µM

Dear colleague, I am looking for the recorded IC50 of the following molecule: CCn1c(-c2nonc2N)nc2cnc(Oc3cccc(NC(=O)c4ccc(OCCN5CCOCC5)cc4)c3)cc21 [GSK-269962A]
> 2.5 µM

Next:
State the recorded IC50 for this entry: CCNc1cc(N[C@H]2CC[C@@H](O)CC2)nc(Nc2ccc3c(ccn3Cc3ccccc3)c2)n1
> 5.12 µM

Requested field: IC50. Item: O=c1[nH]c2ccccc2n1C1CCN(Cc2ccc(-c3nc4cc5[nH]cnc5cc4nc3-c3ccccc3)cc2)CC1
> 2.56 µM

Which IC50 reading was recorded for the molecule Cc1[nH]c(/C=C2\C(=O)Nc3ccc(S(=O)(=O)Cc4c(Cl)cccc4Cl)cc32)c(C)c1C(=O)N1CCC[C@@H]1CN1CCCC1 ?
> 2 µM

Consider the molecule NC(=O)c1ncn([C@@H]2O[C@H](COP(=O)(O)O)[C@@H](O)[C@H]2O)c1N and give its measured IC50.
> 2000 µM

* * *

Test system: KMS-12-PE;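 further: growth inhibition of human KMS-12-PE cells, measured with a cell viability assay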
Assay: cells
Type: functional, cell-based
Conditions: Homo sapiens
Description: SANGER: Inhibition of human KMS-12-PE cell growth in a cell viability assay.
This listing pairs compounds with measured IC50.

Known results for compounds:
Need IC50 of CCNc1cc(N[C@H]2CC[C@@H](O)CC2)nc(Nc2ccc3c(ccn3Cc3ccccc3)c2)n1 , thanks.
> 5120 nM

Query (compound): Cc1n[nH]c2ccc(-c3cncc(OC[C@@H](N)Cc4c[nH]c5ccccc45)c3)cc12 ; field requested: IC50
> 1020 nM

Entry Cc1nc(Nc2ncc(C(=O)Nc3c(C)cccc3Cl)s2)cc(N2CCN(CCO)CC2)n1 : reported IC50 = ?
> 1280 nM

IC50 for Fc1cc(-c2cc[nH]/c(=N/c3ccc(-n4cnc(N5CCOCC5)n4)cc3)n2)cc(N2CCOCC2)c1 ?
1160 nM

Others:
Which IC50 value belongs to N#C/C(=C1/Nc2ccccc2S1)c1ccnc(NCCc2cccnc2)n1 ?
> 8000 nM

* * *

Test system: KOSC-2;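 further: growth inhibition of KOSC-2 cells, read out by a cell viability assay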
Assay: cells
Assay type: functional, cell-based
Settings: Homo sapiens
Description: SANGER: Inhibition of human KOSC-2 cell growth in a cell viability assay.
Measured IC50, listed per entry.
Give a bare numeral; the unit nM is implied.

Using the record for C/C=C(/C)C(=O)O[C@H]1C(C)=C2[C@H]([C@@H]1OC(=O)CCCCCCC)[C@@](C)(OC(C)=O)C[C@H](OC(=O)CCC)[C@@]1(O)[C@H]2OC(=O)[C@@]1(C)O , report its IC50.
425

Let us examine a further case.
What value of IC50 has been recorded for this entry: CCNC(=O)c1noc(-c2cc(C(C)C)c(O)cc2O)c1-c1ccc(CN2CCOCC2)cc1
41.1

* * *

System: NCI-H2452
Assay: cells
Format: functional, cell-based
Conditions: Homo sapiens
Description: SANGER: Inhibition of human NCI-H2452 cell growth in a cell viability assay.
IC50 reference

# annotated cases, reported IC50 shown
# input molecule: C/C=C(/C)C(=O)O[C@H]1C(C)=C2[C@H]([C@@H]1OC(=O)CCCCCCC)[C@@](C)(OC(C)=O)C[C@H](OC(=O)CCC)[C@@]1(O)[C@H]2OC(=O)[C@@]1(C)O ; wanted: its IC50
> 512 nM

# input molecule: CC(O)(CS(=O)(=O)c1ccc(F)cc1)C(=O)Nc1ccc(C#N)c(C(F)(F)F)c1 (centres undefined) [BICALUTAMIDE] ; wanted: its IC50
> 1020 nM

Which value of IC50 has been reported for N#C/C(=C1/Nc2ccccc2S1)c1ccnc(NCCc2cccnc2)n1 in the records?
> 8000 nM

Shifting focus to the molecule that follows.
Record request: IC50 value, item Cn1c(=O)n(-c2ccc(C(C)(C)C#N)cc2)c2c3cc(-c4cnc5ccccc5c4)ccc3ncc21
44.6 nM

* * *

Test system: MKN-1;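 further: growth inhibition of human MKN1 cells, read out by a cell viability measurement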
Assay: cells
Format: functional, cell-based
Details: Homo sapiens
Description: SANGER: Inhibition of human MKN1 cell growth in a cell viability assay.
reported.metric: IC50 (µM)
Report the value in µM with no unit label.

Param item = Fc1cc(-c2cc[nH]/c(=N/c3ccc(-n4cnc(N5CCOCC5)n4)cc3)n2)cc(N2CCOCC2)c1 ; retrieve measured IC50.
0.549

Lab note: next compound to report on.
Data request, read-out IC50, for N#C/C(=C1/Nc2ccccc2S1)c1ccnc(NCCc2cccnc2)n1
2.9

* * *

The compounds listed here are annotated with their IC50.
System: GMS-10;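 further: growth inhibition of GMS-10 cells, read out as cell viability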
Assay: cells
Assay type: functional, cell-based
Details: Homo sapiens
Description: SANGER: Inhibition of human GMS-10 cell growth in a cell viability assay.
Your answer is read as nM, so omit the unit and give the number.

Which IC50 is listed for CC[C@]1(O)C[C@@H]2CN(CCc3c([nH]c4ccccc34)[C@@](C(=O)OC)(c3cc4c(cc3OC)N(C)[C@H]3[C@@](O)(C(=O)OC)[C@H](OC(C)=O)[C@]5(CC)C=CCN6CC[C@]43[C@@H]65)C2)C1 ?
11.3

Switching to the query record.
Endpoint output: IC50 of CCNC(=O)c1noc(-c2cc(C(C)C)c(O)cc2O)c1-c1ccc(CN2CCOCC2)cc1 . Value?
134

* * *

Below, each entry is listed alongside its reported pIC50.
System: COR-L88
Experiment: cells
Assay type: functional, cell-based
Details: Homo sapiens
Description: SANGER: Inhibition of human COR-L88 cell growth in a cell viability assay.
pIC50: −log10 of the molar value.

Reference set, count: 2
Which value of pIC50 has been reported for Cc1[nH]c(/C=C2\C(=O)Nc3ccc(S(=O)(=O)Cc4c(Cl)cccc4Cl)cc32)c(C)c1C(=O)N1CCC[C@@H]1CN1CCCC1 in the records?
< 5.70

Need pIC50 of CCNc1cc(N[C@H]2CC[C@@H](O)CC2)nc(Nc2ccc3c(ccn3Cc3ccccc3)c2)n1 , thanks.
< 5.29

***
GET /values?readout=pIC50&item= Cc1n[nH]c2ccc(-c3cncc(OC[C@@H](N)Cc4c[nH]c5ccccc45)c3)cc12
6.13

Look at this compound and give its reported pIC50. CO[C@@]12[C@H](COC(N)=O)C3=C(C(=O)C(C)=C(N)C3=O)N1C[C@@H]1N[C@@H]12
6.50

pIC50 for N#C/C(=C1/Nc2ccccc2S1)c1ccnc(NCCc2cccnc2)n1 ?
< 5.10

For the compound shown here, Fc1cc(-c2cc[nH]/c(=N/c3ccc(-n4cnc(N5CCOCC5)n4)cc3)n2)cc(N2CCOCC2)c1 , give the reported pIC50.
5.59

Fill blank: measured pIC50 of the compound Cn1cc(/C=C2\C(=O)Nc3cccnc32)c2ccccc21 is ____.
< 5.70

Could you share which pIC50 value was measured for COc1cc(Nc2c(C#N)cnc3cc(OCCCN4CCN(C)CC4)c(OC)cc23)c(Cl)cc1Cl ?
< 5.70
